# assay target: Human Factor B (human) (UniProt P00751)
# Sequence (P00751 26-764 limits assumed): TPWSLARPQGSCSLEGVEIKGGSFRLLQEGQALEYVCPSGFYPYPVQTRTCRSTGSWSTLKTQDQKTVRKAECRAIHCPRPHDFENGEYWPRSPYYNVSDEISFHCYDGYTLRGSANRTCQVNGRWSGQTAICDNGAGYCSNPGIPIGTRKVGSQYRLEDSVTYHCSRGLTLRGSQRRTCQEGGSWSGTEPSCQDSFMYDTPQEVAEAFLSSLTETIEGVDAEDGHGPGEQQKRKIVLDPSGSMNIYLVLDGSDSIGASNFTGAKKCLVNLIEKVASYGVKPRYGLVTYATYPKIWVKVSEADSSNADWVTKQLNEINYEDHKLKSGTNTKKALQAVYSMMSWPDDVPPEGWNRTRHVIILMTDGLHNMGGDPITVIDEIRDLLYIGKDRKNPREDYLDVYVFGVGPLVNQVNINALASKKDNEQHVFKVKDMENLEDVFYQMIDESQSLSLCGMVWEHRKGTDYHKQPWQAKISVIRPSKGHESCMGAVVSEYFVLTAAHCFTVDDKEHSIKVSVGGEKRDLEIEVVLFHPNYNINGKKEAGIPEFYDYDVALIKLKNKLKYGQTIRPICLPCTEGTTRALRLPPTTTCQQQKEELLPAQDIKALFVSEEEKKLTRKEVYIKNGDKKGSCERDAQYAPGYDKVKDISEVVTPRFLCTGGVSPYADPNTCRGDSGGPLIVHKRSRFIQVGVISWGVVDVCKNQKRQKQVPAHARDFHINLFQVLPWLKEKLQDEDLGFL
# procedure details: cell-based or functional assay
metric: log10(fB Cleavage EC50) (log10 of the value in nM)
Field: value | Transform: log10 | Quantity: fB Cleavage EC50 | Unit: nM

| binder | log10(fB Cleavage EC50) |
| --- | --- |
| chymase C22S/P38Q/K40L/F41R/L99M/V138I/F173L/D175R/A190S/V213A/S218V/A226R (enzyme) IIGGTESKPHSRPYMAYLEIVTSNGQSLRCGGFLIRRNFVLTAAHCAGRSITVTLGAHNITEEEDTWQKLEVIKQFRHPKYNTSTMHHDIMLLKLKEKASLTLAVGTLPFPSQFNFVPPGRMCRIAGWGRTGVLKPGSDTLQEVKLRLMDPQACSHLRRFDHNLQLCVGNPRKTKSSFKGDSGGPLLCAGVAQGIASYGRVDAKPPRVFTRISHYRPWINQILQAN | 2.33 |

log10(fB Cleavage EC50) for chymase C22S/P38Q/K40M/F41H/V138I/D175S/A190S/V213A/A226R (enzyme) IIGGTESKPHSRPYMAYLEIVTSNGQSMHCGGFLIRRNFVLTAAHCAGRSITVTLGAHNITEEEDTWQKLEVIKQFRHPKYNTSTLHHDIMLLKLKEKASLTLAVGTLPFPSQFNFVPPGRMCRIAGWGRTGVLKPGSDTLQEVKLRLMDPQACSHFRSFDHNLQLCVGNPRKTKSSFKGDSGGPLLCAGVAQGIASYGRSDAKPPRVFTRISHYRPWINQILQAN ?
3.03

Would you mind doing chymase C22S/P38Q/K40L/F41R/V138I/F173Y/D175R/A190S/V213A/S218T/A226R (enzyme) IIGGTESKPHSRPYMAYLEIVTSNGQSLRCGGFLIRRNFVLTAAHCAGRSITVTLGAHNITEEEDTWQKLEVIKQFRHPKYNTSTLHHDIMLLKLKEKASLTLAVGTLPFPSQFNFVPPGRMCRIAGWGRTGVLKPGSDTLQEVKLRLMDPQACSHYRRFDHNLQLCVGNPRKTKSSFKGDSGGPLLCAGVAQGIASYGRTDAKPPRVFTRISHYRPWINQILQAN as well?
2.35

Would you mind doing chymase C22S/P38Q/K40M/F41H/L99N/V138I/F173Y/D175S/A190S/V213A/S218T/A226R (enzyme) IIGGTESKPHSRPYMAYLEIVTSNGQSMHCGGFLIRRNFVLTAAHCAGRSITVTLGAHNITEEEDTWQKLEVIKQFRHPKYNTSTNHHDIMLLKLKEKASLTLAVGTLPFPSQFNFVPPGRMCRIAGWGRTGVLKPGSDTLQEVKLRLMDPQACSHYRSFDHNLQLCVGNPRKTKSSFKGDSGGPLLCAGVAQGIASYGRTDAKPPRVFTRISHYRPWINQILQAN as well?
2.75

Would you mind doing chymase C22S/V138A/S189T/A226R/F228M (enzyme) IIGGTESKPHSRPYMAYLEIVTSNGPSKFCGGFLIRRNFVLTAAHCAGRSITVTLGAHNITEEEDTWQKLEVIKQFRHPKYNTSTLHHDIMLLKLKEKASLTLAVGTLPFPSQFNFVPPGRMCRAAGWGRTGVLKPGSDTLQEVKLRLMDPQACSHFRDFDHNLQLCVGNPRKTKTAFKGDSGGPLLCAGVAQGIVSYGRSDAKPPRVMTRISHYRPWINQILQAN as well?
3.25

Would you mind doing chymase C22S/P38Q/K40M/F41R/L99H/V138I/D175Q/A190S/V213A/S218V/A226R (enzyme) IIGGTESKPHSRPYMAYLEIVTSNGQSMRCGGFLIRRNFVLTAAHCAGRSITVTLGAHNITEEEDTWQKLEVIKQFRHPKYNTSTHHHDIMLLKLKEKASLTLAVGTLPFPSQFNFVPPGRMCRIAGWGRTGVLKPGSDTLQEVKLRLMDPQACSHFRQFDHNLQLCVGNPRKTKSSFKGDSGGPLLCAGVAQGIASYGRVDAKPPRVFTRISHYRPWINQILQAN as well?
2.48

Would you mind doing chymase C22S/P38Q/K40M/F41R/L99N/V138I/D175N/A190S/V213A/S218T/A226R (enzyme) IIGGTESKPHSRPYMAYLEIVTSNGQSMRCGGFLIRRNFVLTAAHCAGRSITVTLGAHNITEEEDTWQKLEVIKQFRHPKYNTSTNHHDIMLLKLKEKASLTLAVGTLPFPSQFNFVPPGRMCRIAGWGRTGVLKPGSDTLQEVKLRLMDPQACSHFRNFDHNLQLCVGNPRKTKSSFKGDSGGPLLCAGVAQGIASYGRTDAKPPRVFTRISHYRPWINQILQAN as well?
2.65

Would you mind doing chymase C22S/K111E/F173L/Y215H/A226R (enzyme) IIGGTESKPHSRPYMAYLEIVTSNGPSKFCGGFLIRRNFVLTAAHCAGRSITVTLGAHNITEEEDTWQKLEVIKQFRHPKYNTSTLHHDIMLLKLKEEASLTLAVGTLPFPSQFNFVPPGRMCRVAGWGRTGVLKPGSDTLQEVKLRLMDPQACSHLRDFDHNLQLCVGNPRKTKSAFKGDSGGPLLCAGVAQGIVSHGRSDAKPPRVFTRISHYRPWINQILQAN as well?
3.95

Would you mind doing chymase C22S/P38Q/K40L/F41R/L99N/V138I/F173Y/D175N/A190S/V213A/S218V/A226R (enzyme) IIGGTESKPHSRPYMAYLEIVTSNGQSLRCGGFLIRRNFVLTAAHCAGRSITVTLGAHNITEEEDTWQKLEVIKQFRHPKYNTSTNHHDIMLLKLKEKASLTLAVGTLPFPSQFNFVPPGRMCRIAGWGRTGVLKPGSDTLQEVKLRLMDPQACSHYRNFDHNLQLCVGNPRKTKSSFKGDSGGPLLCAGVAQGIASYGRVDAKPPRVFTRISHYRPWINQILQAN as well?
1.81

Would you mind doing chymase C22S/K40M/F41K/F173Y/D175R/S218E/A226R (enzyme) IIGGTESKPHSRPYMAYLEIVTSNGPSMKCGGFLIRRNFVLTAAHCAGRSITVTLGAHNITEEEDTWQKLEVIKQFRHPKYNTSTLHHDIMLLKLKEKASLTLAVGTLPFPSQFNFVPPGRMCRVAGWGRTGVLKPGSDTLQEVKLRLMDPQACSHYRRFDHNLQLCVGNPRKTKSAFKGDSGGPLLCAGVAQGIVSYGREDAKPPRVFTRISHYRPWINQILQAN as well?
2.31
